The values you see were collected from paper PMC2231817.

target: mutant rod CNG channel H468Q (H468Q and A483V), α homomultimer (Bos taurus, UniProt Q00194, A483V/H468Q)
endpointLabel: pIC50
Would you please state pIC50, meaning minus log10 of the concentration in mol/L, as a bare number?

Query string: Sample CCCCCCCC(=O)OC[C@H](CO)OC(=O)CCCCCCC [DAG, 1,2-dioctanoyl-sn-glycerol] — what was its pIC50?
Result string: 6.48

---

Molecular target: bovine rod CNG channel (CNG1, α homomultimer) (Bos taurus)
Sequence (Q00194 1-690): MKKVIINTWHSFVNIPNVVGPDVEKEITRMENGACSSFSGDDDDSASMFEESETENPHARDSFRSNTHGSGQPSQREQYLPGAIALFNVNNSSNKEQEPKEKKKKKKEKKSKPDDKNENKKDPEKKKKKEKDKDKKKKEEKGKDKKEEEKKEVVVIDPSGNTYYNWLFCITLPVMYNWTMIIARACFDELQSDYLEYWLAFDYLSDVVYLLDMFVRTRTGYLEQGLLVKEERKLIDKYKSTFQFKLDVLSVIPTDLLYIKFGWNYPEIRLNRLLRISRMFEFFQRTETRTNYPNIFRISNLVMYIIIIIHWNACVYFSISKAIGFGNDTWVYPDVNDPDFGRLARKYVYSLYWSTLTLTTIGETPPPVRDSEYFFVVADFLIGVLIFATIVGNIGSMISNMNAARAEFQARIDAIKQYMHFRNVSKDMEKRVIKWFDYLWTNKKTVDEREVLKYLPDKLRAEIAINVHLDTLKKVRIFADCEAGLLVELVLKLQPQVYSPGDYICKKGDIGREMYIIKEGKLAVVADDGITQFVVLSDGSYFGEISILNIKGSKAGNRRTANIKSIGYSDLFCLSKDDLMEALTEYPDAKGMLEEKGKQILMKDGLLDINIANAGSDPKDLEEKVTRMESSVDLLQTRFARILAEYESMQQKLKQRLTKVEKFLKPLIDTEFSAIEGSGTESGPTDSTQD
Settings: IC50 for DAG inhibition, saturating 2 mM cGMP, 11 patches
endpointLabel: pIC50
Value format note: pIC50 is -log10 of concentration (mol/L); just state the number.

Query string: Data request, read-out pIC50, for CCCCCCCC(=O)OC[C@H](CO)OC(=O)CCCCCCC [DAG, 1,2-dioctanoyl-sn-glycerol]
Result string: 6.08
